- System: SKVLB
- procedure text: Microculture tetrazolium assay
- Format: cell-based
- protocol conditions: IC50 ratio SKVLB/SKOV3
Decide using VLB/OV3: a value greater than or equal to 2 is Y, a smaller one is N.

Would you say `COC[C@H]1CC2=C(C(=O)c3cc4ccccc4c(O)c3C2=O)[C@H](O[C@H]2C[C@H](NC(=O)C(F)(F)F)[C@H](O)[C@H](C)O2)O1` shows VLB/OV3 at minimum 2?
Y

Would you say CCOC(=O)[C@@H]1CC2=C(C(=O)c3cc4ccccc4c(OC(C)=O)c3C2=O)[C@@H](O)O1 (mixture of isomers) shows VLB/OV3 at minimum 2?
N

Would you say CC(=O)[C@@H]1CC2=C(C(=O)c3cc4ccccc4c(O)c3C2=O)[C@@H](O[C@@H]2O[C@@H](C)[C@@H](O)[C@@H](O)C2I)O1 (stereo partly drawn) shows VLB/OV3 at minimum 2?
Y

Would you say CC(C)[C@H]1Cc2c(O)c3c(c(O)c2[C@H](O[C@H]2C[C@H](N4CCOCC4C#N)[C@H](O)[C@H](C)O2)O1)C(=O)c1ccccc1C3=O (stereo partly drawn) shows VLB/OV3 at minimum 2?
Y

Would you say `CCOC(=O)[C@H]1CC2=C(C(=O)c3cc4ccccc4c(O)c3C2=O)[C@H](O[C@H]2C[C@H](NC(=O)C(F)(F)F)[C@H](O)[C@H](C)O2)O1` shows VLB/OV3 at minimum 2?
N

Would you say `CC(=O)[C@H]1CC2=C(C(=O)c3cc4ccccc4c(O)c3C2=O)[C@H](O[C@H]2C[C@H](NC(=O)C(F)(F)F)[C@H](O)[C@H](C)O2)O1` shows VLB/OV3 at minimum 2?
N
